assay: physchem; details: buffer, pH 7.4
What logD was measured for each of the following?
Answers are plain numbers.

compound	logD
COc1ccc(-c2nnc(C(=O)N3CC(Oc4ccc(CN5CCCC56COC6)cc4)C3)o2)cc1	3.9
COc1ccc(-c2nnc(C(=O)N3CC(Oc4ccc(CN(C)C)cn4)C3)o2)cc1	1.8
O=C(c1nnc(-c2ccccc2Cl)o1)N1CCC(Oc2ccc(CN3CCCC3)cc2)CC1	2.7
COc1ccc(-c2nnc(C(=O)N3CC(Oc4ccc(CN5CCC(C)(O)C5)cc4)C3)o2)cc1 (stereo unspecified)	1.6
O=C(c1nnc(-c2ccccc2)o1)N1CC(Oc2ccc(CN3CC4(COC4)C3)cc2)C1	1.8

Next up:
-- ask Entry CN1CCN(Cc2ccc(OC3CN(C(=O)c4nnc(-c5ccccc5)o4)C3)cc2F)CC1 has what logD?
-- reply 2.1
